As shown below, each of these binders has a reported Kd value.
Biological target: T1, Rb^P S474N (human, UniProt P06400 380-788, S474N)
T1 construct: also called variant 12
T1 sequence (looked up): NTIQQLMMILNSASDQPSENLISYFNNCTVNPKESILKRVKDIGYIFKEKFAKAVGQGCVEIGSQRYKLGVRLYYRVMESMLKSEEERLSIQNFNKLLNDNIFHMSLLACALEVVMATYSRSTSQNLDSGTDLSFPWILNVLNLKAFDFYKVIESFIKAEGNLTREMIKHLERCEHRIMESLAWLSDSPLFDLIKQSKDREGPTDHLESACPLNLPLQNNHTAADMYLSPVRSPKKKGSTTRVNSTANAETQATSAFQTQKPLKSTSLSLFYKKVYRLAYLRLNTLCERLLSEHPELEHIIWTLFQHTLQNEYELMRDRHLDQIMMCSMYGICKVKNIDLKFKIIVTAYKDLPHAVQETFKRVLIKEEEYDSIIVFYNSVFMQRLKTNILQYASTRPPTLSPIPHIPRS
Experiment: fluorescence polarisation; 25 °C; unlabeled Rb^P titrated against 1.5 nM TMR-E2F1^TD or 7.5 nM TMR-E7^LxCxE; 25 mM Tris pH 8.0, 200 mM NaCl, 1 mM DTT, 0.1% Tween-20; 2 min incubation; quadratic fit; apparent Kd for the variants, Kd for WT
Conditions: both partners purified
No end group written: not given here. TMR = tetramethyl rhodamine dye
Don't forget the unit after the number, please.

- binder: "{TMR}-GEGIRDLFDCDFGDLTPLD (also called E2F^TD; source: synthetic peptide, bought: GenScript) [TMR-E2F1^TD, peptide of the E2F1 transactivation domain]"
  Kd: "19 nM"

Kd reading for DLYCYEQLN (also: TMR label, position not given here, source: synthetic peptide, bought: GenScript) [TMR-E7^LxCxE, LxCxE peptide of the E7 oncoprotein from HPV] : 8 nM
